Item-by-item account of Percent Effect
# EXPERIMENTAL SYSTEM: AMP-activated protein kinase, AMPK (Homo sapiens) (UniProt P54646+O43741+P54619+Q9UGJ0+Q9Y478+Q13131+Q9UGI9)
# EXPERIMENT SUMMARY: AMP-dependent Kinase enzyme assay. An in vitro enzyme assay that detects ADP turnover that is directly proportional to AMPK activity. This uses naive AMPK that is activated during the assay with MK-8722
# Type: functional
# Design: scale not given: direction of the effect not stated beside the values
# COND: 30 µM
Include the unit after the number when you answer.

Example results:
NCC(c1ccccc1)N1CCc2sccc2C1 (stereo not given): -9.46%
COc1ncccc1NC(=O)N1CCC(CN2CCOCC2)CC1: -10.3%

For c1ncn(CC2CCCCN2Cc2noc(C3CC3)n2)n1 (stereo not given) , write its Percent Effect.
0.834%

For O=C(CCNc1ncccn1)NCCOc1ccc2c(c1)CCC2 , write its Percent Effect.
-0.433%

For Cc1cccc(-c2[nH]ncc2CNCC2CCN(CC(C)O)CC2)c1 (stereo not given) , write its Percent Effect.
-18.5%

For CC1(C)CC(N2Cc3nc(N4CCOCC4)ncc3C2=O)CC(C)(C)N1 , write its Percent Effect.
1.41%

====

# System: Trypanosoma cruzi
# EXPERIMENT SUMMARY: Trypanosoma cruzi phosphomannomutase and mannose-1-phosphate guanylyltransferase assay
# Assay type: functional
# Set-up: scale not given: direction of the effect not stated beside the values
# COND: 10 µM
Item-by-item account of Percent Effect
All answers are understood in %, so give the number only.

Find the measured Percent Effect of COc1ncccc1C(=O)NCC(C)Oc1cccnc1 (stereo not drawn) with Trypanosoma cruzi as test system.
0.386

Find the measured Percent Effect of O=C(c1cccnc1)N1CCc2ncnc(C3CCOC3)c2CC1 (stereo not drawn) with Trypanosoma cruzi as test system.
-5.71

Find the measured Percent Effect of Cc1cc(C(=O)N2C[C@@H]3COC[C@]3(COCc3cccnc3)C2)no1 with Trypanosoma cruzi as test system.
-3.45

====

# EXPERIMENTAL SYSTEM: Ubiquitin-activating enzyme e1, putative (Leishmania donovani (strain BPK282A1)) (UniProt E9BSI1)
# Sequence (E9BSI1 as listed by the source): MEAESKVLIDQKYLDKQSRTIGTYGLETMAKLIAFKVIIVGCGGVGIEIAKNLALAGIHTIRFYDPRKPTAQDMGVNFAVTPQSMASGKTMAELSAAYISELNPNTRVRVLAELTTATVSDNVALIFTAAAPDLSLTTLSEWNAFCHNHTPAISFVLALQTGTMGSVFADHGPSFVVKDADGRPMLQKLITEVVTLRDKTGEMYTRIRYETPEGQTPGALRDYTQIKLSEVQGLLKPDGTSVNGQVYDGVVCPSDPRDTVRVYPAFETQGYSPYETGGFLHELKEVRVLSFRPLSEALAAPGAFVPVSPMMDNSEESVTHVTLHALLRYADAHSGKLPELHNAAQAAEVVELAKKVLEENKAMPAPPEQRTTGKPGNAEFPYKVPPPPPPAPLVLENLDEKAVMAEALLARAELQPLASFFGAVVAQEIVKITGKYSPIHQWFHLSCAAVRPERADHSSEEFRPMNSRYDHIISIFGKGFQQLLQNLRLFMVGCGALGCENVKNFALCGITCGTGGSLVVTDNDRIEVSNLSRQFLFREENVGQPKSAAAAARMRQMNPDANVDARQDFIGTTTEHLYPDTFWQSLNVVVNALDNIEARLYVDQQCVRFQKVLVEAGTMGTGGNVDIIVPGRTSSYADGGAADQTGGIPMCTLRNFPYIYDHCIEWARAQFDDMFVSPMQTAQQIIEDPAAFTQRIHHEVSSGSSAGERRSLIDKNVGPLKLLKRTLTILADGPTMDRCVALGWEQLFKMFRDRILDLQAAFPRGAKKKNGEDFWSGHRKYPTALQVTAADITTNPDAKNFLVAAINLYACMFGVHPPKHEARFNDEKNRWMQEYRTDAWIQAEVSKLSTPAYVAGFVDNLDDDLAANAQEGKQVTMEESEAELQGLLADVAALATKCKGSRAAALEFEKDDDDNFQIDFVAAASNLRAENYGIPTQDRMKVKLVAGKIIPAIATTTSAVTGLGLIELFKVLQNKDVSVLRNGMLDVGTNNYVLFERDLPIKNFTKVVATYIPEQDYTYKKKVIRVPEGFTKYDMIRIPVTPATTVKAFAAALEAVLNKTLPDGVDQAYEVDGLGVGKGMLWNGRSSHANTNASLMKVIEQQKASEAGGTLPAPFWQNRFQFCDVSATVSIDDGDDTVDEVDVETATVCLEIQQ
# EXPERIMENT SUMMARY: Leishmania donovani Ubiquitin Activating Enzyme (LdE1)
# Assay type: functional
# Parameters: scale not given: direction of the effect not stated beside the values
# COND: 30 µM
Measured potencies and affinities stand elsewhere.
READOUT NAME: Percent Effect (%)
All answers are understood in %, so give the number only.

Example results:
Cc1ncsc1CN1C[C@@H]2COC[C@]2(C(=O)NCC2CC2)C1: 0
COCC(O)CNC(=O)c1coc(COc2ccc3sc(C)nc3c2)n1 (stereo not given): 5.48
O=C(C1SCCc2sccc21)N1CCN(CCO)CC1 (stereo not given): 16.2
CC(C)c1nnc2n1CCN(Cc1csc(CC(=O)N(C)C)n1)C2: 18.4

// next item, Percent Effect requested
For CC(C)C(C(=O)N1CCN(Cc2ccncc2)CC1)n1cncn1 (stereo not given) , write its Percent Effect.
7.79

====

# EXPERIMENTAL SYSTEM: Protein translocase subunit SecA (Escherichia coli (strain K12)) (UniProt P10408)
# Sequence (P10408 whole entry): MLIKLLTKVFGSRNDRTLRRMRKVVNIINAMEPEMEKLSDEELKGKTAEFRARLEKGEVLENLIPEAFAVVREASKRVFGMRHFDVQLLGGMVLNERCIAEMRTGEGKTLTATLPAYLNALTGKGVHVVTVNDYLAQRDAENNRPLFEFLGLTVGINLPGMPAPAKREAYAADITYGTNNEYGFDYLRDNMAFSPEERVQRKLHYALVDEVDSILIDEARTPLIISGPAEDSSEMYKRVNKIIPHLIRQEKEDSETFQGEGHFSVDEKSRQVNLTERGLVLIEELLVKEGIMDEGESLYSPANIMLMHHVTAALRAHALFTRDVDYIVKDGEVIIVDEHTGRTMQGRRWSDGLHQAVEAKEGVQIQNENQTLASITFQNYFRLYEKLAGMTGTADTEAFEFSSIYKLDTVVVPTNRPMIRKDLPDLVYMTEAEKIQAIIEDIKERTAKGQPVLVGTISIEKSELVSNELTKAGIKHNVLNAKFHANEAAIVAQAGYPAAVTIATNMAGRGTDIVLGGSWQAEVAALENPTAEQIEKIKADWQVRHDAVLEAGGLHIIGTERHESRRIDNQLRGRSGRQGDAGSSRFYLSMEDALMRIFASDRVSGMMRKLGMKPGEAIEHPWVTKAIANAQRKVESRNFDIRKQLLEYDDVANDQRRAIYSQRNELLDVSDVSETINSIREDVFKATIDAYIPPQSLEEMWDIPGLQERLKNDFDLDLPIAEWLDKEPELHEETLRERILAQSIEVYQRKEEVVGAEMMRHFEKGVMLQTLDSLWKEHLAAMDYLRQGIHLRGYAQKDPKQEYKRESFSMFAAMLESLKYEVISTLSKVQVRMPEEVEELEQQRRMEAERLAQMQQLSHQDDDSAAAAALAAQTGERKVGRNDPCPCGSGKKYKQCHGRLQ
# EXPERIMENT SUMMARY: Assay to Identify E. coli SecA ATPase Inhibitors
# Assay type: functional
# Design: scale not given: direction of the effect not stated beside the values
# COND: 30 µM
Measured potencies and affinities stand elsewhere.
READOUT NAME: Percent Effect
Include the unit after the number when you answer.

O=C(NCC1OCCc2cn(CC3CC3)nc21)c1ccsc1 (configuration not stated): -5.87%
Cc1ccc(C(=O)N2CCC(Oc3ccc(F)cc3F)CC2)c(=O)[nH]1: -4.74%
CCc1csc(C2CCCN(C(=O)c3c[nH]c(C)n3)C2)n1 (configuration not stated): -1.65%
CC(C)NC(=O)COc1nc(C(C)C)no1: -4.66%
CCOCC1CN(S(C)(=O)=O)Cc2ncn(CC3CC3)c21 (configuration not stated): -2.41%
CN1CCN(Cc2cnc3n2CCN(Cc2cccs2)C3)CC1: -1.16%

Find the measured Percent Effect of CC(C)(C)c1nc(CN2CCC(c3nc4cc(Cl)ccc4o3)CC2)no1 with Protein translocase subunit SecA (Escherichia coli (strain K12)) (UniProt P10408) as test system.
0.762%

Find the measured Percent Effect of c1ccc(NCc2cn3c(n2)CN(Cc2cccnc2)CC3)nc1 with Protein translocase subunit SecA (Escherichia coli (strain K12)) (UniProt P10408) as test system.
-5.07%

Find the measured Percent Effect of Cc1nccnc1N1CCC2(CCCN(C3CCOCC3)C2=O)C1 (configuration not stated) with Protein translocase subunit SecA (Escherichia coli (strain K12)) (UniProt P10408) as test system.
-7.49%

====

# EXPERIMENTAL SYSTEM: Tyrosyl-tRNA synthetase, putative (Trypanosoma cruzi (strain CL Brener)) (UniProt Q4DSP6)
# Sequence (whole entry): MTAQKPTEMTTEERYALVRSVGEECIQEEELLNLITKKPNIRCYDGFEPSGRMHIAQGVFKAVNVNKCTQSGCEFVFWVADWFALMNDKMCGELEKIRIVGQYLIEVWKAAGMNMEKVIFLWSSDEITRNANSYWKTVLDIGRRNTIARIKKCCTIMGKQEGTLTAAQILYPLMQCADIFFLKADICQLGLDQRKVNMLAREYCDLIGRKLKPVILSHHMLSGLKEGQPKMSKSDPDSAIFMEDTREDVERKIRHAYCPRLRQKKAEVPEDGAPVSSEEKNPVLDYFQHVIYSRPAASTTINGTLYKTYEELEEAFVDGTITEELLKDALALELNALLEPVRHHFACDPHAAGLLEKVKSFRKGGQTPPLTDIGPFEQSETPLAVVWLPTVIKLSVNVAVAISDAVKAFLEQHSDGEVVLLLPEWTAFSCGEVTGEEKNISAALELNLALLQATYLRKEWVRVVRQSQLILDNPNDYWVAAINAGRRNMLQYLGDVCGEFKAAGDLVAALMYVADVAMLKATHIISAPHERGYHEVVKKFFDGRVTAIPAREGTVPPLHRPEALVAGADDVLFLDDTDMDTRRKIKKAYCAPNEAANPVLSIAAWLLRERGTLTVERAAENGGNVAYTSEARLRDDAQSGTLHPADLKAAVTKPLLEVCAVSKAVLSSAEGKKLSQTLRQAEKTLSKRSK
# EXPERIMENT SUMMARY: Trypanosoma cruzi tyrosyl tRNA synthetase (TcYRS) SOP
# Format: functional
# Parameters: scale not given: direction of the effect not stated beside the values
# COND: 30 µM
# label = Satisfied if Percent Effect < 10% else Not satisfied

CC(C)c1nn(C)c(N(C)C)c1CNCC(O)c1ccccc1F (stereo unspecified): Satisfied
Cc1nc(C(=O)N2CCCC(c3cccc(-n4ccnc4)n3)C2)co1 (stereo unspecified): Satisfied
c1ncn(Cc2cnc3n2CCN(Cc2ccsc2)CC3)n1: Satisfied
COCCn1ccc2cc(NC(C)=O)ccc21: Not satisfied
O=C1CC2(CCCCC2)CC(=O)N1CC(O)COCc1ccc(Cl)cc1 (stereo unspecified): Satisfied

Confirm or reject: Percent Effect of CC(C)N(C)S(=O)(=O)N(C)Cc1ccc2c(c1)OCO2 lies strictly below 10%
Not satisfied

Confirm or reject: Percent Effect of O=C(COc1coc(CN2CCCC2)cc1=O)NCc1ccccc1Cl lies strictly below 10%
Not satisfied

Confirm or reject: Percent Effect of COc1ccc(-c2nnc(SC(C)C(=O)NC3CC3)[nH]2)c(OC)c1 (stereo unspecified) lies strictly below 10%
Not satisfied

Confirm or reject: Percent Effect of Fc1cccc(-n2ccc(CN3CCCCC3Cn3cncn3)n2)c1 (stereo unspecified) lies strictly below 10%
Satisfied

Confirm or reject: Percent Effect of CCOC1CCN(C(=O)c2c(Cl)c3ccccc3n2C)CC1 lies strictly below 10%
Not satisfied

Confirm or reject: Percent Effect of Cc1cc(=O)n2ncnc2n1CC(O)c1cc(F)ccc1F (stereo unspecified) lies strictly below 10%
Not satisfied

====

# EXPERIMENTAL SYSTEM: Protein translocase subunit SecA (Escherichia coli (strain K12))
# EXPERIMENT SUMMARY: Assay to Identify E. coli SecA ATPase Inhibitors
# Type: functional
# Set-up: scale not given: direction of the effect not stated beside the values
# COND: 30 µM
Entries with a potency or affinity are not part of this list.
READOUT NAME: Percent Effect (%)
All answers are understood in %, so give the number only.

Example results:
CCCNC(=O)CCC(=O)Nc1ccc(-n2cncn2)c(F)c1: -7
COCc1noc(C2(c3ccc(OC)cc3)CCOCC2)n1: -3.44
c1ccc(Cn2cc(CNCC3CCCN3c3cccnn3)cn2)cc1 (configuration not stated): -3.01
O=C(NCC1CC1)[C@H]1C[C@H]2OCC[C@H]2N(Cc2ccoc2)C1: -0.0445
CC(Sc1nnnn1C1CCOCC1)C(=O)NC1CCCCC1 (configuration not stated): -6.54
N#CC1(C(=O)N2CCN(c3nccs3)CC2)CCCCC1: -1.57

// next item, Percent Effect requested
For COc1ccc(C2CCCN2C(=O)c2cc3c([nH]c2=O)CCC3)cc1 (configuration not stated) , write its Percent Effect.
-6.57
